// molecules with pIC50 on Tyrosine-protein kinase JAK2 (Homo sapiens, UniProt O60674), multi-source literature
Sequence (O60674 whole entry): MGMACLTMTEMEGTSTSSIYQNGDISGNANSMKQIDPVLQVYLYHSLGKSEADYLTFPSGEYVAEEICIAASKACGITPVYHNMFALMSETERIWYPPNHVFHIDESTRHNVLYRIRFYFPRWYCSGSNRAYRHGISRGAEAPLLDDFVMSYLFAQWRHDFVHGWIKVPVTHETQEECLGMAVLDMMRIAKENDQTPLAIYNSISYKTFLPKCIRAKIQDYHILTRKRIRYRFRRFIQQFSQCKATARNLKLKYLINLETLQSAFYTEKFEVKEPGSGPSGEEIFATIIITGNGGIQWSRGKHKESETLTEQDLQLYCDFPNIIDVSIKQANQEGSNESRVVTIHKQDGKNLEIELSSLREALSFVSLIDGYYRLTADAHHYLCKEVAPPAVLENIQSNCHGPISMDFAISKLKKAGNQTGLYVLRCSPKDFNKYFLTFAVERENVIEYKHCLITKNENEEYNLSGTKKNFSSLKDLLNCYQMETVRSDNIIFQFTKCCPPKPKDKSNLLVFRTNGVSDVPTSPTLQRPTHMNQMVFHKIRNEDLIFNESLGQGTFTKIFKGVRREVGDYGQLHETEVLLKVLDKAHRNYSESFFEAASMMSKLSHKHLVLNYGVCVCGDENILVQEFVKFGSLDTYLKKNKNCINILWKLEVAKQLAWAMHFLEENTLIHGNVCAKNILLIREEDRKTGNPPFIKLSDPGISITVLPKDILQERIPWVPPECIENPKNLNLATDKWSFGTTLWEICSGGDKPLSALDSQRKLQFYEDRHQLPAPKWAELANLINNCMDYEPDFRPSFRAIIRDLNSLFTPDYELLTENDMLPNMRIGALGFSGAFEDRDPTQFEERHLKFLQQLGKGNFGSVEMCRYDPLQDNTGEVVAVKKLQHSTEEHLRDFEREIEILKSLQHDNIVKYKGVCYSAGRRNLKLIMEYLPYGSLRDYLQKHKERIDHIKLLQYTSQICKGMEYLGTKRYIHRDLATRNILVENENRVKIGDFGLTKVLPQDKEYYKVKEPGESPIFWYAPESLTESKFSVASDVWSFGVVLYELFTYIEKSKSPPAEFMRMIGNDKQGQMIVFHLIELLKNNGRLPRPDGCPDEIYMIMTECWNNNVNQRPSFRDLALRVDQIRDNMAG
pIC50: −log10 of the molar value.
measured.parameter: pIC50

a = O=C(CCCCCCn1cc(Nc2ncc3ccn(Cc4cccc(Cl)c4)c3n2)cn1)NO
b = N#CCC(=O)Nc1cccc(-c2ccnc(Nc3ccc(N4CCOCC4)cc3)n2)c1
Lookup: Which record would sort first by descending pIC50, a or b ? Please indicate the selected item by its label.
Found: a
(a: 7.40, b: 6.52)

a = Cc1cnc(Nc2ccc(CNS(=O)(=O)C3CC3)cc2)nc1-c1cnn(C(C)C)c1
b = CC(=O)Nc1cccc(-c2cc(C(N)=O)c3[nH]c4cc(C(=O)N5CCN(C)CC5)ccc4c3c2)c1
c = CN(c1ncnc2[nH]ccc12)[C@H]1CN(C(=O)c2ccccc2)CC12CC2
d = Cc1cnc(Nc2ccc(F)cc2)nc1-c1cc2c(o1)CCN(S(C)(=O)=O)C2
Lookup: Thanks in advance: please rank these 4 entries by pIC50, highest to lowest. Arrange the labels as the request states and list them.
Found: a, d, b, c

P = Cc1cc(Nc2cc(C)[nH]n2)nc(N2CCC3(CC2)OCCN([C@@H](C)c2ccc(-n4cc(F)cn4)nc2)C3=O)n1
Q = Cc1cc(Nc2ncc(C)c(N3CC(O)(C4CC4)C3)n2)sn1
Lookup: Hi! Which is lower in terms of pIC50, the first one P or the second one Q ? Provide the label of your selected option as the answer.
Found: P
